Reference source for all entries: patent US20080058636A1

Biological target: rat collagen (acid soluble, type I, rat tail, Upstate 08-115) (rat) (UniProt P02454)
Sequence (P02454 152-1207, chain 1 of 2): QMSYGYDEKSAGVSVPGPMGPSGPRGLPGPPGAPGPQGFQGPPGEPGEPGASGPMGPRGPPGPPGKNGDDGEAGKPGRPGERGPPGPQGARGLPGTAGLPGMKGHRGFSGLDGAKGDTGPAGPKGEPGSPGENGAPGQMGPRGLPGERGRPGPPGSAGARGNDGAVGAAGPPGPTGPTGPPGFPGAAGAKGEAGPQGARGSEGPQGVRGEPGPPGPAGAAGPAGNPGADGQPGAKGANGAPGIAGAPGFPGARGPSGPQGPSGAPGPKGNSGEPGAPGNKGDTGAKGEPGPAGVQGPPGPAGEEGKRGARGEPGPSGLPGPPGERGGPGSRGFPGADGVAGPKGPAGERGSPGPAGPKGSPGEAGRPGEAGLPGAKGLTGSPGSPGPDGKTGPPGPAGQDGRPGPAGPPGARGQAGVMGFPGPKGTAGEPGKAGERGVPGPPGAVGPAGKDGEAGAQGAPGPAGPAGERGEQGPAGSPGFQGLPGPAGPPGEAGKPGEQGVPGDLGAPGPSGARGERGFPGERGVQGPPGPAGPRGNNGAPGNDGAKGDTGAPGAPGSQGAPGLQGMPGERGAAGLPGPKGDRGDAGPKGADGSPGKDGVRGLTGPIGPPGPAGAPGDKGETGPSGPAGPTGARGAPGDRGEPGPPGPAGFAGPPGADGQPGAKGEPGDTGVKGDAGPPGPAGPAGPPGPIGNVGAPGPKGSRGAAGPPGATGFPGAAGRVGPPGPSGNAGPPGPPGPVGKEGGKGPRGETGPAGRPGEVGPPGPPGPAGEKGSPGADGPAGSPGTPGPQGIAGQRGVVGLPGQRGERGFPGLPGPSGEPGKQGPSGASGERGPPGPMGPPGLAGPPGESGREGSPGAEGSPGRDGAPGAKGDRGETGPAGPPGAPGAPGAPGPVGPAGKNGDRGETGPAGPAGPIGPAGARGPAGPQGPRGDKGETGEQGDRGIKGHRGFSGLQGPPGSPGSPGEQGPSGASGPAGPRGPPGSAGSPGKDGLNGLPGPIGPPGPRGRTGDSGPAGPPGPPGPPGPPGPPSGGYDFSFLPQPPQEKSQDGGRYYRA
Sequence (P02466 86-1125, chain 2 of 2, further chain): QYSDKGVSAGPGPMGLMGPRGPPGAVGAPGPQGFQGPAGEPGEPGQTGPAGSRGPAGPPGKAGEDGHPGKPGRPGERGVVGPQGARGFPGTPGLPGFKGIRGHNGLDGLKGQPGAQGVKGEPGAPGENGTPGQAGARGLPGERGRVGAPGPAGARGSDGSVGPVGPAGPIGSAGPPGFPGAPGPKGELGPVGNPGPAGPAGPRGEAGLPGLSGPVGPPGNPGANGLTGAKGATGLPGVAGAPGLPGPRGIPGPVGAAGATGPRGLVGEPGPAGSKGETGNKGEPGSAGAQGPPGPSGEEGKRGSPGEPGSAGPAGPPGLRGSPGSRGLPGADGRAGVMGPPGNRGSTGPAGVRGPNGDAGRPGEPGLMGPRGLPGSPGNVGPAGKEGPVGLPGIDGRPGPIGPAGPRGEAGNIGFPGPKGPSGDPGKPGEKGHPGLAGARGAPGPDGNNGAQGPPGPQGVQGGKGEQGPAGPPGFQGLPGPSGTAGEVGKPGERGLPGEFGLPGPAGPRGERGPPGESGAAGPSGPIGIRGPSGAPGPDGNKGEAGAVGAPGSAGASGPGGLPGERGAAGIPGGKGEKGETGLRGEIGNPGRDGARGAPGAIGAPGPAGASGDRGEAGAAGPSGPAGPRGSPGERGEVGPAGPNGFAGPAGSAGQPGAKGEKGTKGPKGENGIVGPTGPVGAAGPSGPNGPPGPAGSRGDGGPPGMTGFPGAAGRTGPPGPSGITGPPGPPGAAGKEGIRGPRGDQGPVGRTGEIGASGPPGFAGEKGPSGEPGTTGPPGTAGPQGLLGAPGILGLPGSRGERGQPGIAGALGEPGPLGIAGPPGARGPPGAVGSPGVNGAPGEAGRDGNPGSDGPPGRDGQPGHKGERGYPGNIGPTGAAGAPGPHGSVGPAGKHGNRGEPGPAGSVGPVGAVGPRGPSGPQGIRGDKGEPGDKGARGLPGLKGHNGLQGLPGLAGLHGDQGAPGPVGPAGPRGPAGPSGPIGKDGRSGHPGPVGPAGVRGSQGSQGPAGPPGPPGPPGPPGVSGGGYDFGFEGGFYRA
Test: dried collagen assay, 5 uM each
Bridge positions count the residues as written; N and C are the ends. Ends that are not written are not given here. GdT = GdDTPA-thiourea
# strict inequality: Rat binding < 60% yields satisfied, everything else yields not satisfied

[ask] Is the reported Rat binding for GQWHCTTRFPHAYCLYG [Compound ID 878] strictly below 60%?
[reply] satisfied

[ask] Is the reported Rat binding for GQWHCTTAFPHHYCLYG [Compound ID 853] strictly below 60%?
[reply] satisfied

[ask] Is the reported Rat binding for GKWHCTTKFPHHYCLYY [Compound ID 980] strictly below 60%?
[reply] not satisfied

[ask] Is the reported Rat binding for GKWHCYTYFPHHYCVYY [Compound ID 945] strictly below 60%?
[reply] not satisfied

[ask] Is the reported Rat binding for GdT-GQWHCYTYFPHHYCLYGK (disulfide 5-14 (inferred); not fully specified (residue 18, C-terminus)) [Compound ID 994] strictly below 60%?
[reply] not satisfied

[ask] Is the reported Rat binding for GQWHCTTLFPHHYCIYG [Compound ID 927] strictly below 60%?
[reply] not satisfied

[ask] Is the reported Rat binding for GKWHCYTYFPHHYCLYFK [Compound ID 985] strictly below 60%?
[reply] not satisfied
